Origin of values: patent US20230202989A1

As shown below, each of these molecules has a reported IC50 value.
- Test system: IL-1β
- METHOD_NOTES: PBMC assay: inhibition of IL-1β release after LPS stimulation (MSD)
- Format: cell-based
- ASSAY_CONTEXT: Homo sapiens, PBMC, 6 h, human PBMCs, 100 ng/ml LPS for 6 hrs, MSD, 96 well plates; read-out: IL1β IC50

MOLECULE	IC50, nM
CC(O)c1nn(CC(=O)Nc2ccc3nncn3c2)c(=O)c2ccc(Br)cc12 (stereo not drawn) [X-1082]	346
CC(C)c1nn(CC(=O)Nc2cc(C#N)c3ncnn3c2)c(=O)c2ccc(C(F)(F)F)cc12 [Final Cpd X162]	15000
CC(C)c1nn(CC(=O)N[C@H]2C[C@@H](C(C)(C)O)C2)c(=O)c2ccc(C(F)(F)F)cc12 [Final Cpd X108]	1630
CC(c1nn(CC(=O)N[C@H]2C[C@@](C)(O)C2)c(=O)c2ccc(C(F)(F)F)cc12)C(F)(F)F (stereo partly drawn) [Final Cpd X85]	915
CCC(C)c1nn(CC(=O)Nc2ccc3nncn3c2)c(=O)c2ccc(C(F)(F)F)cc12 (stereo not drawn) [Final Cpd X24]	175
CC(C)c1nn(CC(=O)N[C@H]2CCCN3CCC[C@@H]23)c(=O)c2ccc(C(F)(F)F)cc12 [Final Cpd X60]	585
CC(C)c1nn(CC(=O)N[C@H]2CC[C@H]2O)c(=O)c2ccc(C(F)(F)F)cc12 (single isomer, unassigned) [Final Cpd X124]	2760

###

- Test system: IL-1β
- METHOD_NOTES: PBMC assay: inhibition of IL-1β release after LPS stimulation (MSD)
- Type: cell-based
- ASSAY_CONTEXT: Homo sapiens, PBMC, 6 h, human PBMCs, 100 ng/ml LPS for 6 hrs, MSD, 96 well plates; read-out: IL1β IC50

COMPOUND	MEASURED_ON	IC50, nM
CC(C)c1nn(CC(=O)N[C@@H]2COC[C@H](O)C2)c(=O)c2ccc(C(F)(F)F)cc12 (mixture of isomers)	IL-1β	9820
CC(C)c1nn(CC(=O)Nc2ccn3ccnc3c2)c(=O)c2ccc(C(F)(F)F)cc12	IL-1β	451
CC(C)c1nn(CC(=O)N[C@H]2C[C@@](C)(O)C2)c(=O)c2ccc(C#N)cc12	IL-1β	1740

###

- Tested on: IL-1β
- METHOD_NOTES: PBMC assay: inhibition of IL-1β release after LPS stimulation (MSD)
- Format: cell-based
- ASSAY_CONTEXT: Homo sapiens, PBMC, 6 h, human PBMCs, 100 ng/ml LPS for 6 hrs, MSD, 96 well plates; read-out: IL1β IC50
pIC50: −log10 of the molar value.

COMPOUND	pIC50
CC(C)c1nn(CC(=O)Nc2ccc3nncn3c2)c(=O)c2ccc(C(F)(F)F)cc12	7.12
CC(=O)N1C[C@@H](O)C[C@H](NC(=O)Cn2nc(C(C)C)c3cc(C(F)(F)F)ccc3c2=O)C1 (single isomer, unassigned)	4.99
CCN1CCC(NC(=O)Cn2nc(C(C)C)c3cc(C(F)(F)F)ccc3c2=O)CC1	5.31
O=C(Cn1nc(C2CC2)c2cc(Br)ccc2c1=O)Nc1ccc2nncn2c1	7.00

###

As shown below, each of these compounds has a reported pIC50 value.
- System: IL-1β
- METHOD_NOTES: PBMC assay: inhibition of IL-1β release after LPS stimulation (MSD)
- Format: cell-based
- ASSAY_CONTEXT: Homo sapiens, PBMC, 6 h, human PBMCs, 100 ng/ml LPS for 6 hrs, MSD, 96 well plates; read-out: IL1β IC50
pIC50: −log10 of the molar value.

COMPOUND	MEASURED_ON	pIC50
CC(C)c1nn(CC(=O)Nc2ccc3nccn3n2)c(=O)c2ccc(C(F)(F)F)cc12	IL-1β	6.86
CC(C)c1nn(CC(=O)Nc2ccc3nnc(Cl)n3n2)c(=O)c2ccc(C(F)(F)F)cc12	IL-1β	6.22
CC(C)c1nn(CC(=O)Nc2ccc3nccn3c2)c(=O)c2ccc(C(F)(F)F)cc12	IL-1β	6.63
CC(C)c1nn(CC(=O)Nc2ccc3nncn3c2)c(=O)c2c(F)cc(C(F)(F)F)cc12	IL-1β	6.12
CC(C)c1nn(CC(=O)N[C@H]2CN(CC[C@H](C)O)CC[C@H]2O)c(=O)c2ccc(C(F)(F)F)cc12	IL-1β	6.06
CC(C)c1nn(CC(=O)Nc2ccc3nncn3n2)c(=O)c2ccc(Br)cc12	IL-1β	7.39
CO[C@H]1CC[C@@H](NC(=O)Cn2nc(C(C)C)c3cc(C(F)(F)F)ccc3c2=O)CC1	IL-1β	5.51
CC(=O)N1C[C@H](O)C[C@H](NC(=O)Cn2nc(C(C)C)c3cc(C(F)(F)F)ccc3c2=O)C1 (single isomer, unassigned)	IL-1β	5.13
CC(C)c1nn(CC(=O)N[C@H]2C[C@H](C(C)(C)O)C2)c(=O)c2ccc(C(F)(F)F)cc12	IL-1β	5.93
CC(C)c1nn(CC(=O)Nc2cn3cnnc3cn2)c(=O)c2ccc(C(C)(F)F)cc12	IL-1β	6.84
CC(C)c1nn(CC(=O)Nc2ccc3nncn3n2)c(=O)c2ccc(C(F)(F)F)c(F)c12	IL-1β	7.29
CC(O)c1nn(CC(=O)Nc2ccncn2)c(=O)c2ccc(Br)cc12 (stereo not drawn)	IL-1β	6.05
CC(=O)N1C[C@@H](O)C[C@@H](NC(=O)Cn2nc(C(C)C)c3cc(C(F)(F)F)ccc3c2=O)C1 (single isomer, unassigned)	IL-1β	4.81
CC(C)c1nn(CC(=O)Nc2nc(Cl)c3nc[nH]c3n2)c(=O)c2ccc(C(F)(F)F)cc12	IL-1β	6.98
CC(C)c1nn(CC(=O)N[C@H]2C[C@@](C)(O)C2)c(=O)c2ccc(C3CC3(F)F)cc12 (stereo partly drawn)	IL-1β	5.55
CC(C)c1nn(CC(=O)Nc2ccncn2)c(=O)c2ccc(OC(F)(F)F)cc12	IL-1β	5.60
COC(C)c1ccc2c(=O)n(CC(=O)N[C@H]3C[C@@](C)(O)C3)nc(C(C)C)c2c1 (stereo partly drawn)	IL-1β	5.67
